test system: Proto-oncogene tyrosine-protein kinase receptor Ret (Homo sapiens), P07949 [Y791F]; settings: at 0.1 µM
Sequence (P07949 whole entry Y791F): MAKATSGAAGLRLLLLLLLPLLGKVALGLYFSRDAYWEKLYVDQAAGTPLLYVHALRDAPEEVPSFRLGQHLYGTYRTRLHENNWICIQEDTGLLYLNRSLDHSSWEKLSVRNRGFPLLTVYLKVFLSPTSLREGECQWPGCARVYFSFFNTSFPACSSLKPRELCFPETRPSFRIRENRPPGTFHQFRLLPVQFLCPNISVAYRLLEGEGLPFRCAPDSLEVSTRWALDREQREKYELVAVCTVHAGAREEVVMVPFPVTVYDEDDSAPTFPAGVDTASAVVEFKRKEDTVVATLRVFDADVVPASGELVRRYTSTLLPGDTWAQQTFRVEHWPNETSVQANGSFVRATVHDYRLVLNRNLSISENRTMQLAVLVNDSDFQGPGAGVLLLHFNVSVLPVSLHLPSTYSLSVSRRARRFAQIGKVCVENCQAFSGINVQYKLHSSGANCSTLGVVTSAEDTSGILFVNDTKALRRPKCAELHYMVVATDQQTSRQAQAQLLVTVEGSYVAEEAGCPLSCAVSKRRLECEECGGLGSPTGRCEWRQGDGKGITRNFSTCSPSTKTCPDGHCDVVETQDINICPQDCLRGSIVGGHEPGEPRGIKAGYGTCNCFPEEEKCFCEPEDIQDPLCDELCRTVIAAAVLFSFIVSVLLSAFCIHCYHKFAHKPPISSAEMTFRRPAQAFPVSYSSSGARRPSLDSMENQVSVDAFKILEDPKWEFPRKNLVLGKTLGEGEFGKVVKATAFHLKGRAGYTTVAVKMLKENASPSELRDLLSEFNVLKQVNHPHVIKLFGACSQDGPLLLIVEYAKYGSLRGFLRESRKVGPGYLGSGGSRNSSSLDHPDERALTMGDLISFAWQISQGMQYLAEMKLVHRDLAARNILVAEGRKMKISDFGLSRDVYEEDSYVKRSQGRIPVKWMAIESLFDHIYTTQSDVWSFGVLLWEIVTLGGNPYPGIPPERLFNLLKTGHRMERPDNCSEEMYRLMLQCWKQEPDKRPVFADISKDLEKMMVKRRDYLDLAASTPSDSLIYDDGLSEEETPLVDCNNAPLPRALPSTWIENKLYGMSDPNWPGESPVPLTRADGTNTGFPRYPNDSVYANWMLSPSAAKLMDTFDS

compound: COc1ccc(-c2cc(-c3c[nH]nc3-c3ccccn3)ccn2)cc1
unit_symbol: %
inhibition: 6.24
--
compound: CC(=O)NCc1cccc(C#Cc2cncnc2Nc2ccc(OCc3cccc(F)c3)c(Cl)c2)c1
unit_symbol: %
inhibition: 1.6
--
compound: CCCN1CCC(c2ccc(Nc3nc(Nc4cc(F)ccc4C(N)=O)c4cc[nH]c4n3)c(OC)c2)CC1
unit_symbol: %
inhibition: 10
--
compound: COc1ccc(-c2oc3ncnc(N)c3c2-c2ccc(NC(=O)Nc3cc(C(F)(F)F)ccc3F)cc2)cc1
unit_symbol: %
inhibition: 74.4
--
compound: CCN(CC)S(=O)(=O)c1ccc(OC)c(Nc2ncc(-c3ccccc3)o2)c1
unit_symbol: %
inhibition: 5.14
--
compound: COc1cc(N2CCN(C(C)C)CC2)ccc1Nc1nc(Nc2ccc(F)cc2C(N)=O)c2cc[nH]c2n1
unit_symbol: %
inhibition: 4.48
--
compound: CCc1nn2ncccc2c1-c1ccnc(NC2CC2)n1
unit_symbol: %
inhibition: 5.5
--
compound: CN(C)CCOc1ccc(-c2nc(-c3ccncc3)c(-c3ccc4c(c3)CC/C4=N\O)[nH]2)cc1
unit_symbol: %
inhibition: 2.28
--
compound: Nc1nc(-c2cccc(Cl)c2)c(-c2ccc3ncccc3n2)s1
unit_symbol: %
inhibition: 3.93
--
compound: Cc1cccc2c1NC(=O)/C2=N\Nc1ccc(S(N)(=O)=O)cc1
unit_symbol: %
inhibition: 2.74
--
compound: CCn1c(-c2nonc2N)nc2ccccc21
unit_symbol: %
inhibition: 4.13
--
compound: CC1=C(C(=O)Nc2cc(Cl)c3[nH]ncc3c2)C(c2ccc(C(F)(F)F)cc2)CC(=O)N1 (stereo not given)
unit_symbol: %
inhibition: 2.42
--
compound: COc1cccc(-c2c[nH]c3c(N/N=C/c4ccncc4)ncnc23)c1
unit_symbol: %
inhibition: 10.2
--
compound: NC(=O)c1sc(-n2cnc3ccc(C(F)(F)F)cc32)cc1OCc1ccccc1Br
unit_symbol: %
inhibition: 3.67
--
compound: COc1ccc2[nH]c3c4[nH]c5ccc(OC)cc5c4c4c(c3c2c1)C(=O)NC4=O
unit_symbol: %
inhibition: 44.8
--
compound: COc1ccc(CNC(=O)c2ccc(-c3cc(-c4nnc(C)o4)ccc3C)cc2)cc1
unit_symbol: %
inhibition: 6.44
--
compound: COc1ccc(-c2nn3ncccc3c2-c2ccnc(Nc3ccc4c(c3)OCCO4)n2)cc1
unit_symbol: %
inhibition: 11.7
--
compound: CN1CCC(n2cnc(-c3ccc(F)cc3)c2-c2ccnc(Nc3ccccc3)n2)CC1
unit_symbol: %
inhibition: 7.03
--
compound: COc1cccc(-n2ncc3c(N/N=C/c4ccc(F)cc4)ncnc32)c1
unit_symbol: %
inhibition: 1.26
--
compound: Fc1ccc(-c2nn3ncccc3c2-c2ccnc(Nc3ccc4c(c3)OCCO4)n2)cc1
unit_symbol: %
inhibition: 30.8
--
compound: O=S(=O)(CCNCc1ccc(-c2ccc3ncnc(Nc4ccc(OCc5cccc(F)c5)c(Cl)c4)c3c2)o1)c1ccccc1
unit_symbol: %
inhibition: 10.8
--
compound: COc1ccc(-c2cc3c(N)ncnc3o2)cc1
unit_symbol: %
inhibition: 2.13
--
compound: Cc1cccc(Nc2ncc(-c3ccccc3)o2)c1
unit_symbol: %
inhibition: 2.77
--
compound: CCNC(=O)O[C@H]1CN[C@H](C#Cc2cc3ncnc(Nc4ccc(OCc5cccc(F)c5)c(Cl)c4)c3s2)C1
unit_symbol: %
inhibition: 1.93
--
compound: CNC(=O)c1cncc(/C=C/c2ccccc2Cl)c1
unit_symbol: %
inhibition: 0.47
--
compound: CCCN(CCS(C)(=O)=O)Cc1ccc(-c2ccc3ncnc(Nc4ccc(OCc5cccc(F)c5)c(Cl)c4)c3c2)o1
unit_symbol: %
inhibition: 2.4
--
compound: COC(=O)Nc1nc2ccc(S(=O)(=O)c3ccc(NC(=O)Nc4cc(C(F)(F)F)ccc4F)cc3)cc2[nH]1
unit_symbol: %
inhibition: 5.5
--
compound: COc1cc2ncn(-c3cc(OCc4ccccc4C(F)(F)F)c(C(=O)N(C)C)s3)c2cc1OC
unit_symbol: %
inhibition: 1.87
--
compound: CS(=O)(=O)CCNCc1ccc(-c2ccc3ncnc(Nc4ccc(OCc5ccccc5)c(C(F)(F)F)c4)c3c2)o1
unit_symbol: %
inhibition: 6.07
--
compound: [O-][S+]1CCN(Cc2ccc(-c3ccc4ncnc(Nc5ccc(OCc6cccc(F)c6)c(Cl)c5)c4c3)o2)CC1
unit_symbol: %
inhibition: 6.06

---

target: MAP kinase-interacting serine/threonine-protein kinase 1 (Homo sapiens) (UniProt Q9BUB5); conditions: at 1 µM
Sequence (Q9BUB5 whole entry, looked up): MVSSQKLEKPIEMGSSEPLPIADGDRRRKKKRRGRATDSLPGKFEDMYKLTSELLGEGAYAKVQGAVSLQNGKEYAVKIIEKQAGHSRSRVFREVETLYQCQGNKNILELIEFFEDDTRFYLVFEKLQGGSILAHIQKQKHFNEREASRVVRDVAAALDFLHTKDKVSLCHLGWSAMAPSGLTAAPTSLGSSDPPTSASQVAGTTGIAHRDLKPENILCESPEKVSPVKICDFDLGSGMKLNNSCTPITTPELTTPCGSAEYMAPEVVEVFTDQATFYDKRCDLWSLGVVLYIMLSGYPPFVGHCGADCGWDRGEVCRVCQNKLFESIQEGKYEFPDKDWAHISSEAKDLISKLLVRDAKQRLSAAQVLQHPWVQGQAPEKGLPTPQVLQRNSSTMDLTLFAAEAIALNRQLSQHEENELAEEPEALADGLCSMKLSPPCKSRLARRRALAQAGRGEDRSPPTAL
value_kind: inhibition (%)

molecule: O=C(Nc1n[nH]c2cc(-c3ccc(F)cc3)ccc12)C1CC1
target: MAP kinase-interacting serine/threonine-protein kinase 1 (Homo sapiens) (UniProt Q9BUB5)
readout_value: 25.8

molecule: Fc1ccc(-c2cc(-c3c[nH]nc3-c3ccccn3)ccn2)cc1
target: MAP kinase-interacting serine/threonine-protein kinase 1 (Homo sapiens) (UniProt Q9BUB5)
readout_value: 10.4

molecule: COc1cccc(-c2c[nH]c3c(N/N=C/c4ccncc4)ncnc23)c1
target: MAP kinase-interacting serine/threonine-protein kinase 1 (Homo sapiens) (UniProt Q9BUB5)
readout_value: 57.1

molecule: COc1cc(Nc2nccc(Nc3ccc4c(C)n[nH]c4c3)n2)cc(OC)c1OC
target: MAP kinase-interacting serine/threonine-protein kinase 1 (Homo sapiens) (UniProt Q9BUB5)
readout_value: 13.5

molecule: CCN1CCC(CC(=O)Nc2n[nH]c3nnc(-c4cccc(F)c4F)cc23)CC1
target: MAP kinase-interacting serine/threonine-protein kinase 1 (Homo sapiens) (UniProt Q9BUB5)
readout_value: 2.05

molecule: CCn1cc(-c2ccnc3[nH]ccc23)c(-c2cccc(NC(=O)Nc3ccc(OCc4ccccc4)cc3)c2)n1
target: MAP kinase-interacting serine/threonine-protein kinase 1 (Homo sapiens) (UniProt Q9BUB5)
readout_value: 1.39

molecule: COC(=O)Nc1nc2ccc(Oc3ccc(NC(=O)Nc4cccc(Cl)c4)cc3)cc2[nH]1
target: MAP kinase-interacting serine/threonine-protein kinase 1 (Homo sapiens) (UniProt Q9BUB5)
readout_value: 4.14

molecule: CNC(=O)c1cccc(C#Cc2cncnc2Nc2ccc(OCc3cccc(F)c3)c(Cl)c2)c1
target: MAP kinase-interacting serine/threonine-protein kinase 1 (Homo sapiens) (UniProt Q9BUB5)
readout_value: 26.2

molecule: CNC(=O)c1cc(-c2ccc(F)cc2)cc(-c2ccc(S(=O)(=O)N3CCCC3)cc2)c1N
target: MAP kinase-interacting serine/threonine-protein kinase 1 (Homo sapiens) (UniProt Q9BUB5)
readout_value: 0.76

molecule: N#Cc1c(NC(=O)c2ccc(F)cc2)sc2c1CCCC2
target: MAP kinase-interacting serine/threonine-protein kinase 1 (Homo sapiens) (UniProt Q9BUB5)
readout_value: 1.91

molecule: CCCN(CCS(C)(=O)=O)Cc1ccc(-c2ccc3ncnc(Nc4ccc(OCc5cccc(F)c5)c(Cl)c4)c3c2)o1
target: MAP kinase-interacting serine/threonine-protein kinase 1 (Homo sapiens) (UniProt Q9BUB5)
readout_value: 9.77

molecule: CC(C)COC(=O)c1ccc2c(c1)/C(=C/Nc1ccc(S(N)(=O)=O)cc1)C(=O)N2
target: MAP kinase-interacting serine/threonine-protein kinase 1 (Homo sapiens) (UniProt Q9BUB5)
readout_value: 6.56

molecule: CCn1c(-c2nonc2N)nc2c(C#CC(C)(C)O)ncc(OC3CCNCC3)c21
target: MAP kinase-interacting serine/threonine-protein kinase 1 (Homo sapiens) (UniProt Q9BUB5)
readout_value: 2.25

molecule: Fc1cccc(COc2ccc(Nc3ncnc4sc(-c5ccco5)cc34)cc2Cl)c1
target: MAP kinase-interacting serine/threonine-protein kinase 1 (Homo sapiens) (UniProt Q9BUB5)
readout_value: 10.1

molecule: COc1cc(/C=N/Nc2ncnc3[nH]ncc23)ccc1O
target: MAP kinase-interacting serine/threonine-protein kinase 1 (Homo sapiens) (UniProt Q9BUB5)
readout_value: 22.6

molecule: COc1cccc(-n2ncc3c(N/N=C/c4ccc(F)cc4)ncnc32)c1
target: MAP kinase-interacting serine/threonine-protein kinase 1 (Homo sapiens) (UniProt Q9BUB5)
readout_value: 17.5

molecule: CCN(CC)S(=O)(=O)c1ccc(OC)c(Nc2ncc(-c3ccccc3)o2)c1
target: MAP kinase-interacting serine/threonine-protein kinase 1 (Homo sapiens) (UniProt Q9BUB5)
readout_value: 5.6

molecule: NS(=O)(=O)c1ccc(N/N=C2\C(=O)Nc3ccc4ncccc4c32)cc1
target: MAP kinase-interacting serine/threonine-protein kinase 1 (Homo sapiens) (UniProt Q9BUB5)
readout_value: 19.4

molecule: Cc1ccc(O)cc1Nc1ccnc2cc(-c3ccccn3)ccc12
target: MAP kinase-interacting serine/threonine-protein kinase 1 (Homo sapiens) (UniProt Q9BUB5)
readout_value: 6.21

molecule: CC(C)(CO)CNC(=O)c1ccc2c(c1)/C(=N/Nc1ccc(S(N)(=O)=O)cc1)C(=O)N2
target: MAP kinase-interacting serine/threonine-protein kinase 1 (Homo sapiens) (UniProt Q9BUB5)
readout_value: 3.37

molecule: CS(=O)(=O)CCNCc1ccc(-c2ccc3ncnc(Nc4ccc(OCc5ccccc5)c(C(F)(F)F)c4)c3c2)o1
target: MAP kinase-interacting serine/threonine-protein kinase 1 (Homo sapiens) (UniProt Q9BUB5)
readout_value: 3.92

molecule: CC1=C(C(=O)Nc2cc(Cl)c3[nH]ncc3c2)C(c2ccc(C(F)(F)F)cc2)CC(=O)N1 (stereo unspecified)
target: MAP kinase-interacting serine/threonine-protein kinase 1 (Homo sapiens) (UniProt Q9BUB5)
readout_value: 7.79

molecule: Nc1ncc(-c2cccc(S(N)(=O)=O)c2)c2scc(-c3ccc(F)c(Cl)c3)c12
target: MAP kinase-interacting serine/threonine-protein kinase 1 (Homo sapiens) (UniProt Q9BUB5)
readout_value: 4.48

molecule: Fc1ccc(-c2nn3ccccc3c2-c2ccncc2)cc1
target: MAP kinase-interacting serine/threonine-protein kinase 1 (Homo sapiens) (UniProt Q9BUB5)
readout_value: 3.36

molecule: c1ccc(-c2nc3n(c2-c2ccc4c(c2)OCO4)CCC3)nc1
target: MAP kinase-interacting serine/threonine-protein kinase 1 (Homo sapiens) (UniProt Q9BUB5)
readout_value: 3.75

molecule: COC(=O)c1sc(-n2cnc3cc(OC)c(OC)cc32)cc1OCc1ccccc1C(F)(F)F
target: MAP kinase-interacting serine/threonine-protein kinase 1 (Homo sapiens) (UniProt Q9BUB5);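 also: each value is an averaged percent inhibition of MKNK1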
readout_value: 3.3
